Cited source: patent US4902791A

experiment.notes: toxicological results, single I.P. dose, DL0 and DL50
Format: in vivo, mouse
measurement.parameters: mice
property.measured: DL0

Would you please look over these solved cases?
* CO[C@@H]1O[C@H](C)C[C@H](NC(=O)N(CCCl)N=O)[C@H]1O | ≥ 20 mg/kg
* CO[C@@H]1O[C@@H](C)C[C@@H](NC(=O)N(CCCl)N=O)[C@@H]1O | ≥ 20 mg/kg
* CO[C@H]1O[C@@H](C)C[C@@H](NC(=O)N(CCCl)N=O)[C@@H]1O | ≥ 40 mg/kg

input: So what's the measured DL0 for this one? "CO[C@H]1C[C@@H](NC(=O)N(CCCl)N=O)[C@H](O)[C@@H](C)O1"
output: ≥ 40 mg/kg

input: Could you tell me which DL0 is on file for "CO[C@H]1O[C@H](C)C[C@H](NC(=O)N(CCCl)N=O)[C@H]1O" ?
output: ≥ 25 mg/kg

###

Tested on: L 1210 cells
experiment.notes: cytotoxic index after 1 h contact, potential "in vivo" activity (TEST N° 2)
Format: cell-based, mouse
Set-up: key: N.S.: not significant
measurement.parameters: 1 hour contact at dose giving 20% index, read after 48 hours
property.measured: CYTOTOXIC INDEX

• CO[C@@H]1C[C@@H](O)[C@H](O)[C@@H](CNC(=O)N(CCCl)N=O)O1 [IC 1350] = N.S.
• CO[C@@H]1C[C@@H](N(C)C(=O)N(CCCl)N=O)[C@H](O)[C@@H](C)O1 [IC 1375] = 69%
• CO[C@@H]1C[C@@H](NC(=O)N(CCCl)N=O)[C@H](O)[C@@H](C)O1 [IC 1183] = 77%
• CO[C@@H]1C[C@@H](NC(=O)N(CCCl)N=O)[C@H](OC)[C@@H](C)O1 [IC 1373] = 68%

Here's the next entry for you.
input: Form field - read-out: CYTOTOXIC INDEX; system: L 1210 cells; submitted item: CO[C@@H]1C[C@@H](NC(=O)N(CCCl)N=O)[C@H](O)[C@@H](CNC(=O)N(CCCl)N=O)O1 [IC 1374]
output: 71%

###

Tested on: L 1210 IGR TUMOR
experiment.notes: "in vivo" activity on L1210 IGR tumor, 5 mg/kg i.p. days 1, 5, 9
Set-up: species or system mouse
property.measured: T/C × 100 (median survival)
Response field accepts a number only; no unit should be typed.

• CO[C@@H]1C[C@@H](NC(=O)N(CCCl)N=O)[C@H](O)[C@@H](CNC(=O)N(CCCl)N=O)O1 [IC 1374] = 185
• CO[C@@H]1C[C@@H](O)[C@H](O)[C@@H](CNC(=O)N(CCCl)N=O)O1 [IC 1350] = 157

input: # get_value(readout='T/C × 100 (median survival)', item= CO[C@@H]1C[C@@H](NC(=O)N(CCCl)N=O)[C@H](O)[C@@H](CO)O1 [IC 1184] )
output: 265

input: // lookup T/C × 100 (median survival) for CO[C@@H]1C[C@@H](NC(=O)N(CCCl)N=O)[C@H](O)[C@@H](C)O1 [IC 1183]
output: 210

input: What value of T/C × 100 (median survival) has been reported for the following molecule? CO[C@@H]1C[C@@H](NC(=O)N(CCCl)N=O)[C@H](OC)[C@@H](C)O1 [IC 1373]
output: 145

###

Test system: L 1210 USA Tumor
experiment.notes: "in vivo" activity on L1210 U.S.A. tumor, 5 mg/kg i.p. days 1, 5, 9
Set-up: species or system mouse
The reader will find reported T/C × 100 (median survival) values listed item by item below.
Could you keep your reply to the number by itself?

input: Tell me the measured T/C × 100 (median survival) of CO[C@@H]1C[C@@H](NC(=O)N(CCCl)N=O)[C@H](O)[C@@H](CO)O1 [IC 1184] , please.
output: 205

input: What value of T/C × 100 (median survival) has been reported for the following molecule? CO[C@@H]1C[C@@H](NC(=O)N(CCCl)N=O)[C@H](OC)[C@@H](C)O1 [IC 1373]
output: 122

input: Can you look up the measured T/C × 100 (median survival) of CO[C@@H]1C[C@@H](O)[C@H](O)[C@@H](CNC(=O)N(CCCl)N=O)O1 [IC 1350] for me?
output: 118

input: Query: T/C × 100 (median survival); subject: CO[C@@H]1C[C@@H](NC(=O)N(CCCl)N=O)[C@H](O)[C@@H](CNC(=O)N(CCCl)N=O)O1 [IC 1374]
output: 151

input: Could you share which T/C × 100 (median survival) value was measured for CO[C@@H]1C[C@@H](NC(=O)N(CCCl)N=O)[C@H](O)[C@@H](C)O1 [IC 1183] ?
output: 161

###

System: melanoma B16
experiment.notes: "in vivo" activity on melanoma B16, 20 mg/kg i.p. days 1, 5, 9
Set-up: species or system mouse
measurement.parameters: surviving more than 60 days
property.measured: percentage of cured mice (%)
Field: numeric (%). Do not append units.

Some compounds with recorded percentage of cured mice:
• CO[C@@H]1C[C@@H](O)[C@H](O)[C@@H](CNC(=O)N(CCCl)N=O)O1 [IC 1350] = 5
• CO[C@@H]1C[C@@H](NC(=O)N(CCCl)N=O)[C@H](OC)[C@@H](C)O1 [IC 1373] = 0
• CO[C@@H]1C[C@@H](NC(=O)N(CCCl)N=O)[C@H](O)[C@@H](CNC(=O)N(CCCl)N=O)O1 [IC 1374] = 10
• CO[C@@H]1C[C@@H](NC(=O)N(CCCl)N=O)[C@H](O)[C@@H](C)O1 [IC 1183] = 5

Note: attention shifts to another entry.
input: Record CO[C@@H]1C[C@@H](NC(=O)N(CCCl)N=O)[C@H](O)[C@@H](CO)O1 [IC 1184] : what is its percentage of cured mice with melanoma B16?
output: 15
